# target.of.assay: T1, TCR gamma/delta constant region (TRGDC) (human, UniProt P0CF51 1-173; B7Z8K6 1-153)
# T1 chain (looked up) 1: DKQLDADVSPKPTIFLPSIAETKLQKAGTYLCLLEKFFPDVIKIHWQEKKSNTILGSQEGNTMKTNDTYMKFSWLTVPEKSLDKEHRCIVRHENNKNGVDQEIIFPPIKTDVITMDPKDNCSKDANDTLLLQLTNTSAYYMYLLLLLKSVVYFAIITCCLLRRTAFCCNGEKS
# T1 chain (looked up) 2: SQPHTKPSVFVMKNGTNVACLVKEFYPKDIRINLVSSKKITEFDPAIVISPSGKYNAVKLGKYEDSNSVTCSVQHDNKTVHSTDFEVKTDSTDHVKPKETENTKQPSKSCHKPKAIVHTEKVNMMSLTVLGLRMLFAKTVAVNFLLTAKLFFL
# test.description: cell-based or functional assay
Catalogue of IFNγ; Luninex (supernatant) values
Respond using a number only.

# binder, IFNγ; Luninex (supernatant)
measured = [
    ("VG9B369 (antibody, human IgG1, kappa, V domains shown) VH: EVQLLESGPTLVKPTQTLTLTCTFSGFSLSTIGVGVGWIRQPPGKALEWLSLIYWNDDKRYNPSLKSRLTITKDTSKNQVVLTMTNMDPVDTATYYCAHSHDWVHAFDIWGQGTMVTVSS VL: DIVMTQSPSSLSASVGDRVTITCQASQDISHYLNWYQQKPGKAPKFLIYDASNLDTGVPSRFSGSGSGTDFTFTISSLQPEDIATYYCQQYDNFPLTFGGGTKVEIKR", 1460),
    ("VG9B386 (antibody, human IgG1, kappa, V domains shown) VH: EVQLVESGGGLVKPGGSLRLSCAASGFTFSSYSMIWVRQAPGKGLEWVSSIGSSSTYIYYADSVRGRFTISRDNAKTSLYLQMNSLRAEDTAMYFCARDGETGGFDYWGQGILVTVSS VL: EIVMTQSPGTLSLSPGERATLSCRASQSISRSYLAWYQQKPGQPPRLLIYGPSNRATGIPDRFSASGSGTDFTLTNSRLEPEDFAVYYCQQYGSLPLTFGGGTKVEIKR", 846),
    ("VG9B136 (antibody, human IgG1, kappa, V domains shown) VH: QVQLQQSGPGLVKPSQTLSLTCAISGDSVSSNRAAWNWIRQSPSKGLEWLGRTYYRSKWYNEYAASVKSRMSINPDTSKNQFSLQLNSVTPEDTALYYCARDLWELREACDIWGQGTMVTVSS VL: DIVMTQSPSFLSTFVGDRVTITCRASQGISSYLAWYQQKPGKVPKLLIYVASTLQSGVPSRFSGSGSGTEFTLTISSLQPEDFATYYCQQLNSYPFTFGPGTKVDIKR", 560),
]

Quick one: IFNγ; Luninex (supernatant) for VG9B125 (antibody, human IgG1, kappa, V domains shown) VH: EVQLVESGGTLVQPGGSLRLSCAVSGFTFSSYDMNWVRQAPGKGLEWVSYISSSSTAKYYADSVKGRFTISRDNAKNSLYLQMNSLWDEDTAVYYCAREDIVVVTPILQHWGQGTTVTVSS VL: EIVMTQSPATLSLSPGERAILSCRASQSVSKDLAWYQQKPGQAPRLLIYDASNRATGIPARISGSGSGTDFTLTISSLEPEDFAVYYCQQRINWPLFTFGPGTKVEIKR ? 1490
